# Species: Mus musculus
# MEASUREMENT_DESCRIPTION: Percent inhibition of anti-CD3 mAb stimulated interleukin-5 release from […] by 10 uM
# Assay type: functional
Property: inhibition at 10 µM; scope: individual compounds
Number first, unit second: that is the form wanted.

Record excerpt, results attached:
smiles=Cc1c(CC(=O)Nc2ccncc2)c2cc(F)ccc2n1Cc1ccc(F)cc1 property_name="inhibition at 10 µM" obs_value=61%
smiles=O=C(Cc1cn(-c2ccc(F)cc2)c2ccc(F)cc12)Nc1ccncc1 property_name="inhibition at 10 µM" obs_value=71%
smiles=COc1ccc2c(c1)c(CC(=O)Nc1ccncc1)cn2Cc1ccccc1 property_name="inhibition at 10 µM" obs_value=38%
smiles=CC(C)c1ccc2c(c1)c(CCC(=O)Nc1ccncc1)cn2Cc1ccccc1 property_name="inhibition at 10 µM" obs_value=25%
smiles=O=C(CCc1cn(Cc2ccc(F)cc2)c2ccccc12)Nc1ccncc1 property_name="inhibition at 10 µM" obs_value=22%
smiles=O=C(CCc1c[nH]c2ccc(Cl)cc12)Nc1ccncc1 property_name="inhibition at 10 µM" obs_value=25%
smiles=O=C(CCc1cn(Cc2ccc(F)cc2)c2ccc(F)cc12)Nc1ccncc1 property_name="inhibition at 10 µM" obs_value=37%
smiles=CC(C)c1ccc2[nH]cc(CC(=O)Nc3ccncc3)c2c1 property_name="inhibition at 10 µM" obs_value=29%
smiles=COc1ccc2c(CC(=O)Nc3ccncc3)cn(Cc3ccc(F)cc3)c2c1 property_name="inhibition at 10 µM" obs_value=76%
smiles=O=C(Cc1cn(Cc2ccc(F)cc2)c2ccc(F)cc12)Nc1ccncc1 property_name="inhibition at 10 µM" obs_value=43%

Now consider a different compound.
Req: Identify measured inhibition at 10 µM associated with `O=C(CCc1cn(Cc2ccccc2)c2ccc(F)cc12)Nc1ccncc1`
Resp: 42%
